studyTarget: EGFR (Homo sapiens, UniProt P00533)
Construct: The intracellular portion of EGFR started at nucleotide 2189 (corresponding to amino acid 667) and ended at the termination codon
Sequence (P00533 669-1210 limits assumed): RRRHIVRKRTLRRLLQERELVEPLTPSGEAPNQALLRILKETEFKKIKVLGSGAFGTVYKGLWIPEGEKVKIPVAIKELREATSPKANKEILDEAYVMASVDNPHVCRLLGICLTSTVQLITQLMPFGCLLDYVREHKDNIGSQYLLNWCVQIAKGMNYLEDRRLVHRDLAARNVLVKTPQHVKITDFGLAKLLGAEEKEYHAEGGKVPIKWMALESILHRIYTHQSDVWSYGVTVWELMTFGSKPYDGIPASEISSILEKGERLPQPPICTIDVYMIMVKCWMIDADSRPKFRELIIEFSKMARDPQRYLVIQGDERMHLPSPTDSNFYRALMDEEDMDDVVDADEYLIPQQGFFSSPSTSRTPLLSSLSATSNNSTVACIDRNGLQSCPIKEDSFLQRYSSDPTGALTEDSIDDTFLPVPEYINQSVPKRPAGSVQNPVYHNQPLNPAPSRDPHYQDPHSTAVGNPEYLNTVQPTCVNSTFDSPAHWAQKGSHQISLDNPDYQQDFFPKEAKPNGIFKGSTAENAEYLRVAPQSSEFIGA
testDetails: EGFR Kinase Assay
conditionParameters: GST-EGFR, ATP 5 μM
readoutKind: log10 IC50 (log10 of the value in nM)

> print(dat)
                                    compound  readoutkind  recordedvalue
 1  COc1ccc(N2C(=O)Nc3c(C(=O)Nc4ccc(OCCN5CCOCC5)c(OC)c4)sc4ncnc2c34)c(F)c1   log10 IC50           2.01
 2  O=C(Nc1ccccc1)c1sc2ncnc3c2c1NC(=O)N3c1cccc(Br)c1   log10 IC50           2.28
 3  CN1CCCN(C(=O)c2sc3ncnc4c3c2NC(=O)N4c2ccc(Oc3ccccc3)cc2)CC1   log10 IC50           3.11
 4  O=C(Nc1ccc(CN2CCCCC2)cc1)c1sc2ncnc3c2c1NC(=O)N3c1ccc(F)cc1Cl   log10 IC50           2.22
 5  COc1ccc(N2C(=O)Nc3c(C(=O)Nc4ccc(CN5CCCCC5)cc4)sc4ncnc2c34)cc1Br   log10 IC50           2.94
 6  NCCCNC(=O)c1sc2ncnc3c2c1NC(=O)N3c1ccc2c(ccn2Cc2cccc(F)c2)c1   log10 IC50           1.04
 7  CN(C)CCCNC(=O)c1sc2ncnc3c2c1NC(=O)N3c1ccc(Sc2ccccc2)cc1   log10 IC50           1.56
 8  O=C(NCCCO)c1sc2ncnc3c2c1NC(=O)N3c1ccc(Oc2ccccc2)cc1   log10 IC50           1.62
 9  NC1CCN(Cc2ccc(NC(=O)c3sc4ncnc5c4c3NC(=O)N5c3ccc(Oc4ccccc4)cc3)cc2)CC1   log10 IC50           1.32
10  CCOC(=O)c1sc2ncnc3c2c1NC(=O)N3c1ccc2c(cnn2Cc2cccc(F)c2)c1   log10 IC50           3.35
11  COc1cc(NC(=O)c2sc3ncnc4c3c2NC(=O)N4c2ccc(Sc3ccccc3)cc2)ccc1CN1CCOCC1   log10 IC50           2.10
12  O=C(Nc1ccc(CN2CCCCC2)cc1)c1sc2ncnc3c2c1NC(=O)N3c1ccc(Sc2ccccc2)cc1   log10 IC50           1.46
13  O=C(Nc1ccc(CN2CCCCC2)cc1)c1sc2ncnc3c2c1NC(=O)N3c1ccc(OCc2ccco2)c(Cl)c1   log10 IC50           1.36
14  O=C(Nc1ccc(NCCCN2CCOCC2)nc1)c1sc2ncnc3c2c1NC(=O)N3c1ccc(F)c(Cl)c1   log10 IC50           1.92
15  O=C(Nc1ccc(CN2CCCCC2)cc1)c1sc2ncnc3c2c1NC(=O)N3c1ccc(Br)cc1   log10 IC50           1.99
16  Cc1ccc(Oc2ccc(N3C(=O)Nc4c(C(=O)Nc5ccc(CN6CCOCC6)cc5)sc5ncnc3c45)cc2C)cn1   log10 IC50           3.26
17  Cc1ccc(Br)cc1N1C(=O)Nc2c(C(=O)NC3CCN(C)CC3)sc3ncnc1c23   log10 IC50           3.25
18  O=C(Nc1ccc(N2CCOCC2)cc1)c1sc2ncnc3c2c1NC(=O)N3c1ccc2c(ccn2Cc2cccc(F)c2)c1   log10 IC50           2.42
19  O=C(Nc1ccc(CN2CCCCC2)cc1)c1sc2ncnc3c2c1NC(=O)N3c1ccc2c(cnn2Cc2cccc(F)c2)c1   log10 IC50           1.56
20  COc1ccc(N2C(=O)Nc3c(C(=O)Nc4ccc(CCN5CCCCC5)cc4)sc4ncnc2c34)cc1Cl   log10 IC50           3.03
21  O=C(Nc1ccc(CN2CCC(F)CC2)cc1)c1sc2ncnc3c2c1NC(=O)N3c1ccc(Oc2ccccc2)cc1   log10 IC50           1.57
22  CN1CCN(Cc2ccc(NC(=O)c3sc4ncnc5c4c3NC(=O)N5c3ccccc3Cl)cc2)CC1   log10 IC50           2.78
23  O=C(Nc1ccc(CN2CCCCC2)cc1)c1sc2ncnc3c2c1NC(=O)N3c1ccc(Oc2cccnc2)c(Cl)c1   log10 IC50           2.00
24  O=C(Nc1ccc(CN2CCOCC2)cc1)c1sc2ncnc3c2c1NC(=O)N3c1ccc2c(cnn2Cc2cccc(F)c2)c1   log10 IC50           2.11
25  O=C(Nc1ccc(CN2CCCC(F)C2)cc1)c1sc2ncnc3c2c1NC(=O)N3c1ccc(Oc2ccccc2)cc1 (stereo not shown)   log10 IC50           1.72
26  O=C(Nc1cccnc1)c1sc2ncnc3c2c1NC(=O)N3c1ccc(F)c(Cl)c1   log10 IC50           1.84
27  COc1cc(NC(=O)c2sc3ncnc4c3c2NC(=O)N4c2ccc(Cc3ccccc3)cc2)ccc1OCCN1CCCCC1   log10 IC50           1.26
28  O=C(Nc1ccc(CCN2CCCCC2)cc1)c1sc2ncnc3c2c1NC(=O)N3c1ccc(Oc2cccc(F)c2)cc1   log10 IC50           1.18
29  CN1CCC(NC(=O)c2sc3ncnc4c3c2NC(=O)N4c2ccc3c(ccn3Cc3cccc(F)c3)c2)CC1   log10 IC50           1.65
30  O=C(O)c1sc2ncnc3c2c1NC(=O)N3c1ccc2c(ccn2Cc2cccc(F)c2)c1   log10 IC50           2.21
31  O=C(Nc1ccc(CN2CCOCC2)cc1)c1sc2ncnc3c2c1NC(=O)N3c1ccc(Sc2ccccc2)cc1   log10 IC50           1.89

Entry source: patent US7579356B2
